# Target System: RORγ-LBD (Homo sapiens, UniProt P51449)
# Sequence (P51449 269-508 limits assumed): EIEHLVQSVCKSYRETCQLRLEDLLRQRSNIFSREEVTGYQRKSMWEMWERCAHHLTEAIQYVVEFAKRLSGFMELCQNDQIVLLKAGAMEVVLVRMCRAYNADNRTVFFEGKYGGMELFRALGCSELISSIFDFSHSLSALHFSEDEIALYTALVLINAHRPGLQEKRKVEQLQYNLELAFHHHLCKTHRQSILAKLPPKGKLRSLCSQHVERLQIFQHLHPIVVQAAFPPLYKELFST
# Assay Explanation: RORγ-Ligand Binding Domain (LBD) TR-FRET Assay
Reported Property: EC50

Molecule | Measured
CC(F)C(=O)NC[C@H]1CN(S(=O)(=O)c2cccc(C(F)(F)F)c2)c2cc(-c3cccc(F)c3Cl)ccc2O1 (stereo partly drawn) [Compound 30CK] | < 500 nM
O=C(O)CC[C@H]1CN(S(=O)(=O)c2cccc(C(F)(F)F)c2)c2cc(-c3cc(Cl)ccc3Cl)ccc2O1 | < 500 nM
O=C(O)CNC(=O)CC[C@H]1CN(S(=O)(=O)c2cccc(C(F)(F)F)c2)c2cc(-c3cccc(C(F)(F)F)n3)ccc2O1 [Compound 23J] | < 500 nM

* * *

# Target System: RORγ-LBD (Homo sapiens, UniProt P51449)
# Assay Explanation: RORγ-Ligand Binding Domain (LBD) TR-FRET Assay
pEC50: −log10 of the molar value.
Reported Property: pEC50

Molecule | Reported Property | Measured
COc1ccc(Cl)cc1-c1ccc2c(c1)N(S(=O)(=O)c1cccc(C(F)(F)F)c1)C[C@H](CCC(=O)O)O2 | pEC50 | > 6.30
COc1cc(S(=O)(=O)N2C[C@H](CCc3n[nH]c(=O)o3)Oc3ccc(-c4cc(F)ccc4F)cc32)ccc1F [Compound 28J] | pEC50 | > 6.30
O=C(O)[C@H](O)CC[C@H]1CN(S(=O)(=O)c2cccc(C(F)(F)F)c2)c2cc(-c3cc(F)ccc3F)ccc2O1 | pEC50 | > 6.30
O=C(O)CC[C@H]1CN(S(=O)(=O)c2cccc(C(F)(F)F)c2)c2cc(-c3cc(F)cc(F)c3F)ccc2O1 | pEC50 | > 6.30
CC(C)(CO)C(=O)NC[C@H]1CN(S(=O)(=O)c2cccc(C(F)(F)F)c2)c2cc(-c3cc(F)cc(OC(F)F)c3)ccc2O1 [Compound 30DH] | pEC50 | > 6.30
N#Cc1cccc(-c2ccc3c(c2)N(S(=O)(=O)c2cccc(C(F)(F)F)c2)C[C@H](CCC(=O)O)O3)c1 | pEC50 | > 6.30
O=C(CC[C@H]1CN(S(=O)(=O)c2cccc(C(F)(F)F)c2)c2cc(-c3cccc(F)c3F)ccc2O1)N1CCS(=O)(=O)CC1 [Compound 23N] | pEC50 | > 6.30
CC(C)(C[C@H]1CN(S(=O)(=O)c2cccc(C(F)(F)F)c2)c2cc(-c3cc(F)ccc3F)ccc2O1)NC(=O)C(C)(C)O [Compound 30CX] | pEC50 | > 6.30
CC(=O)NC1(C[C@H]2CN(S(=O)(=O)c3cccc(C(F)(F)F)c3)c3cc(-c4cccc(C(F)(F)F)n4)ccc3O2)COC1 [Compound 51M] | pEC50 | > 6.30
COc1cccc(-c2cc3c(cc2Cl)O[C@@H](CCC(=O)O)CN3S(=O)(=O)c2cccc(C(F)(F)F)c2)c1 [Compound 22C] | pEC50 | > 6.30
O=C(O)CCNC(=O)CC[C@H]1CN(S(=O)(=O)c2cccc(C(F)(F)F)c2)c2cc(-c3cccc(Cl)c3)ccc2O1 [Compound 23D] | pEC50 | > 6.30
NS(=O)(=O)CCC(=O)NC[C@H]1CN(S(=O)(=O)c2cccc(C(F)(F)F)c2)c2cc(-c3cccc(F)c3Cl)ccc2O1 [Compound 30BK] | pEC50 | > 6.30
CC(C)(C#N)C(=O)NC[C@H]1CN(S(=O)(=O)c2cccc(C(F)(F)F)c2)c2cc(-c3cc(F)ccc3F)ccc2O1 [Compound 30AQ] | pEC50 | > 6.30
O=C(O)CCC[C@H]1CN(S(=O)(=O)c2cccc(C(F)(F)F)c2)c2cc(-c3cccc(C(F)(F)F)n3)ccc2O1 [Compound 21C] | pEC50 | > 6.30
COc1cc(S(=O)(=O)N2C[C@H](CNS(=O)(=O)N(C)C)Oc3ccc(-c4cc(F)ccc4F)cc32)ccc1F [Compound 45C] | pEC50 | > 6.30
O=C(O)CC[C@H]1CN(S(=O)(=O)c2cccc(C(F)(F)F)c2)c2cc(-c3cc(C(F)(F)F)ccc3F)ccc2O1 | pEC50 | > 6.30
CN(C)c1cccc(-c2ccc3c(c2)N(S(=O)(=O)c2cccc(C(F)(F)F)c2)C[C@H](CCNC(=O)C(C)(C)O)O3)n1 [Compound 30A] | pEC50 | > 6.30
O=C(NC[C@H]1CN(S(=O)(=O)c2cccc(C(F)(F)F)c2)c2cc(-c3cc(F)cc(OC(F)F)c3)ccc2O1)C1(F)CC1 [Compound 30DJ] | pEC50 | > 6.30
O=C(NC[C@H]1CN(S(=O)(=O)c2cccc(C(F)(F)F)c2)c2cc(-c3cc(F)ccc3F)ccc2O1)C1(O)CC1 [Compound 30AG] | pEC50 | > 6.30
O=C(O)C1(C[C@H]2CN(S(=O)(=O)c3cccc(C(F)(F)F)c3)c3cc(-c4cc(F)ccc4F)ccc3O2)CCC1 [Compound 32BE] | pEC50 | > 6.30
CC(C)(C(=O)NC[C@H]1CN(S(=O)(=O)c2cccc(C(F)(F)F)c2)c2cc(-c3cccc(C(F)(F)F)n3)ccc2O1)C(F)(F)F [Compound 30BY] | pEC50 | 5.30 to 6.30
CC(=O)N[C@H]1C[C@@](C[C@H]2CN(S(=O)(=O)c3cccc(C(F)(F)F)c3)c3cc(-c4cc(F)cc(OC(F)F)c4)ccc3O2)(C(=O)O)C1 | pEC50 | > 6.30
CC(C)(C[C@H]1CN(S(=O)(=O)c2cccc(C(F)(F)F)c2)c2cc(-c3cccc(C(F)F)c3)ccc2O1)C(=O)O [Compound 32AL] | pEC50 | > 6.30
COc1cc(S(=O)(=O)N2C[C@H](CNC(=O)[C@@](C)(O)C(F)(F)F)Oc3ccc(-c4cc(F)ccc4F)cc32)ccc1F [Compound 30X] | pEC50 | > 6.30
CC(C)(C[C@H]1CN(S(=O)(=O)c2cccc(C(F)(F)F)c2)c2cc(-c3cccc(OC(F)F)c3)ccc2O1)C(=O)O [Compound 32G] | pEC50 | > 6.30

* * *

# Target System: Gal4-RORγ-LBD (Homo sapiens)
# Construct: expressed in transfected cells; host or cells: HEK-293 cells (pcDNA3.1neo plasmid)
# Sequence (P51449 269-508 limits assumed): as above
# Assay Explanation: Gal4-RORγ Luciferase Reporter Assay in HEK-293T Cells
# Format: cell-based
# Measurement Setup: HEK-293 cells, 2 μM ursolic acid
pEC50: −log10 of the molar value.

Molecule | pEC50
COCCC(=O)NC[C@H]1CN(S(=O)(=O)c2cccc(C(F)(F)F)c2)c2cc(-c3cccc(F)c3Cl)ccc2O1 [Compound 30CH] | 5.30 to 6.30
CC(C)(O[C@H]1Cc2ccc(-c3cc(F)ccc3F)cc2N(S(=O)(=O)c2cccc(C(F)(F)F)c2)C1)C(=O)O [Compound 83C] | 5.30 to 6.30
CC1(C(=O)O)CC(C[C@H]2CN(S(=O)(=O)c3cccc(C(F)(F)F)c3)c3cc(-c4cccc(C(F)(F)F)n4)ccc3O2)C1 (stereo partly drawn) [Compound 60O] | > 6.30
CC(C)(F)C(=O)NC[C@H]1CN(S(=O)(=O)c2cccc(C(F)(F)F)c2)c2cc(-c3cccc(F)c3Cl)ccc2O1 [Compound 30BZ] | > 6.30
CC(=O)N[C@H]1C[C@H](C[C@H]2CN(S(=O)(=O)c3cccc(C(F)(F)F)c3)c3cc(-c4cc(F)cc(OC(F)F)c4)ccc3O2)C1 [Compound 60D] | > 6.30
CC(C)(C[C@H]1CN(S(=O)(=O)c2cccc(C(F)(F)F)c2)c2cc(-c3cc(F)ccc3F)ccc2O1)NS(C)(=O)=O [Compound 30DE] | > 6.30

* * *

# Target System: RORγ-LBD (Homo sapiens)
# Construct: made in house; host or cells: SF9 cells (baculovirus)
# Assay Explanation: RORγ-Ligand Binding Domain (LBD) TR-FRET Assay
# Assay type: biochemical

Molecule | EC50
COc1cc(S(=O)(=O)N2C[C@H](CNC(=O)[C@@](C)(O)C(F)(F)F)Oc3ccc(-c4cccc(C(F)(F)F)n4)cc32)ccc1F [Compound 30CC] | < 0.5 µM
CN(C)c1nccc(-c2ccc3c(c2)N(S(=O)(=O)c2cccc(C(F)(F)F)c2)C[C@H](CCC(=O)O)O3)n1 [Compound 4AV] | 0.5 to 5 µM
Cc1nn(C)c(C)c1-c1ccc2c(c1)N(S(=O)(=O)c1cccc(C(F)(F)F)c1)C[C@H](CCC(=O)O)O2 [Compound 4U] | 0.5 to 5 µM
CC(C)(C[C@@H]1CN(S(=O)(=O)c2cccc(C(F)(F)F)c2)c2cc(-c3cc(F)ccc3F)ccc2O1)NS(C)(=O)=O [Compound 30DF] | < 0.5 µM
COc1c(F)cc(F)cc1-c1ccc2c(c1)N(S(=O)(=O)c1cccc(C(F)(F)F)c1)C[C@H](CCC(=O)O)O2 [Compound 2BC] | < 0.5 µM
O=C(O)[C@@]1(C[C@H]2CN(S(=O)(=O)c3cccc(C(F)(F)F)c3)c3cc(-c4cc(F)ccc4F)ccc3O2)CCNC1=O [Compound 77B] | < 0.5 µM
